target: KRAS G12C (Homo sapiens (Human), UniProt P01116, C118A/G12C); experiment: 2 h coupled exchange assay; assay type: biochemical; conditions: Avg 2 h Coupled exchange IC50, 2 h compound pre-incubation
Sequence (P01116 other isoform, or with tags, fused parts or gaps G12C/C118A): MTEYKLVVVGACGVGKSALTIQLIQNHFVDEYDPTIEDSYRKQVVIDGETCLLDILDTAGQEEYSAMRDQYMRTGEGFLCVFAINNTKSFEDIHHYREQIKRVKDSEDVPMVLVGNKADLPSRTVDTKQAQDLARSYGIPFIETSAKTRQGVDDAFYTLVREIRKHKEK
Experimental Endpoint: IC50 (nM)

Consider the reported IC50 for these compounds:
| Compound | IC50 [nM] |
| --- | --- |
| C=CC(=O)N1CC2(CCN(c3nc4cc(-c5ccnn5C(F)F)ccc4c(-c4ccccc4Cl)c3C#N)C2)C1 | 521 |
| C=CC(=O)N1CC2(CCN(c3nc4ccccc4c(-c4c(C)ccc5[nH]ncc45)c3Cl)C2)C1 | 121 |
| C=CC(=O)N1CC2(CCN(c3nc4c(c(-c5c(C)c(C)cc6cnn(C)c56)c3C)COC(C)(C)C4)C2)C1 [Example 14-40] | 110 |

1: C=CC(=O)N1CC2(CCN(c3nc4c(c(-c5ccc(F)cc5Cl)c3C#N)CO[C@H](c3scnc3C)C4)C2)C1
2: C=CC(=O)N1CC2(CCN(c3nc4c(c(-c5ccccc5Cl)c3C#N)CCN(c3scnc3C)C4)C2)C1 (single isomer, unassigned) [Example 21-23]
3: C=CC(=O)N1CC2(CCN(c3nc4c(c(-c5cc(O)ccc5Cl)c3C#N)CCN(c3scnc3C)C4)C2)C1 (single isomer, unassigned) [Example 21-25]
4: C=CC(=O)N1CC2(CCN(c3nc4c(c(-c5ccc(F)c(O)c5)c3C#N)C[C@H]3C[C@@H]4C3(C)C)C2)C1
Input: // ranking: key=IC50, reverse=True Please respond with the labels ordered as the question requires.
Output: 3, 4, 1, 2
(3: 3260 nM, 4: 776 nM, 1: 415 nM, 2: 114 nM)
